Below are pIC50 values for UniProt:O15379 collected from several publications.
One number for each entry, as −log10 of the molar value.

Consider the worked cases shown below.
[
  {
    "Molecule": "CNc1ccc(C(=O)NCCCCC(=O)NO)cc1",
    "Endpoint name": "pIC50",
    "Measured number": 7.07
  },
  {
    "Molecule": "CN(C(=O)N1CCC(Nc2ncc(C(=O)NO)cn2)(c2ccccc2)CC1)c1ccccc1",
    "Endpoint name": "pIC50",
    "Measured number": 5.79
  },
  {
    "Molecule": "COc1ccc2c(c1)C(=O)N(CCCCCC(=O)NO)c1ccccc1S2(=O)=O",
    "Endpoint name": "pIC50",
    "Measured number": 8.89
  },
  {
    "Molecule": "O=C(CCCCCCN(c1ccccn1)c1ccccn1)NO",
    "Endpoint name": "pIC50",
    "Measured number": 6.15
  }
]

// each molecule listed below needs its pIC50
1. O=C(NO)c1ccc(CN(C(=O)N2CCOCC2)c2cccc(C(F)(F)F)c2)cc1
2. CN(C(=O)CCCCCCCNc1cccc2c1C(=O)N(C1CCC(=O)NC1=O)C2=O)c1ccc(NC(=O)CCCCCCC(=O)NO)cc1 (centres unmarked)
3. CN1C(=O)Cc2cc(C(=O)Nc3cc(-c4ccc(O)cc4)ccc3N)ccc21
4. Nc1ccc(-c2ccccc2)cc1NC(=O)c1ccc2c(c1)CC(=O)N2CC1CC1

1. 4.99
2. 5.46
3. 5.56
4. 6.03

State recorded pIC50 for all listed molecules.
1. O=C(NO)c1cnc(NC2(c3ccccc3)CCN(S(=O)(=O)c3ccccc3)CC2)nc1
2. O=C(NO)c1cnc(NC2(c3ccccc3)CCN(C(=O)Cc3cc4ccccc4[nH]3)CC2)nc1
3. Cc1ccc(NC(=O)CCCCCC(=O)N2CCN(c3ccccc3)CC2)cc1
4. COc1ccc2c(c1)C(=O)N(CCCCCC(=O)NO)c1ccccc1S2
5. O=C(/C=C/c1ccc2c(c1)nc(CCc1ccccc1)n2CCN1CCCCC1)NO
6. CN(CCc1ccccc1)S(=O)(=O)c1cccc(/C=C/C(=O)NO)c1
7. Nc1ccccc1NC(=O)c1ccc(NC(=O)C/C=C/c2cccnc2)cn1

[5.45, 7.38, 5.04, 8.96, 7.25, 8.47, 9.00]

---

Literature compilation of pIC50 measurements on Histone deacetylase 3 (Homo sapiens, UniProt O15379).
pIC50: −log10 of the molar value.

Past entries and their recorded results:
[
  {
    "Smiles structure": "O=C(NO)c1ccc(NCc2cc(Cl)ccc2Cl)cc1",
    "Result": "6.70 to 7.00"
  },
  {
    "Smiles structure": "Nc1ccc(-c2cc(F)cc(F)c2)cc1NC(=O)c1ccc(N2CCNCC2)cn1",
    "Result": "< 6.30"
  },
  {
    "Smiles structure": "Nc1ccc(-c2ccoc2)cc1NC(=O)c1ncc(N2CCNCC2)cn1",
    "Result": "6.92 to 6.96"
  },
  {
    "Smiles structure": "Nc1ccc(-c2cccs2)cc1NC(=O)c1ccc2[nH]cnc2c1",
    "Result": "6.63 to 6.82"
  }
]

Return reported pIC50 values for all items listed beneath this line.
1. CN1CCN(c2ccc(C(=O)Nc3cc(-c4cccs4)ccc3N)nc2)CC1
2. O=C(NO)C1=CCN(S(=O)(=O)c2ccc(-c3cnn(C4CCNCC4)c3)cc2)CC1

6.30 to 8.00
6.30 to 7.00

I need pIC50 for every entry listed below, if you could help.
1. Nc1ccc(-c2ccoc2)cc1NC(=O)c1ncc(N2CCNCC2)s1
2. CN1CCN(c2ccc(C(=O)Nc3cc(-c4ccccc4)ccc3N)cn2)CC1
3. Cc1ccc(/C=C/CC(=O)Nc2ccc(C(=O)Nc3ccc(F)cc3N)nc2)cn1
4. O=C(/C=C/c1ccccc1)NO

1: 6.30 to 8.00; 2: 6.30 to 8.00; 3: 6.17; 4: 6.82

Record pIC50 for all entries; do not skip any.
1. O=C(/C=C/c1ccc(CNCC2CCCCC2)cc1)NO
2. O=C(/C=C/c1ccc(CNCC2CCCCC2)c(F)c1)NO
3. Nc1ccc(-c2ccccn2)cc1NC(=O)c1cnc(N2CCNCC2)s1
4. Nc1cc(C(F)(F)F)ccc1NC(=O)c1ccc(NC(=O)C/C=C/c2cccnc2)cc1
5. Nc1ccc(-c2cc(F)cc(F)c2)cc1NC(=O)c1ccc(N2CCNCC2)nc1

[8.37, 9.27, "< 6.30", "< 4.70", "< 6.30"]

Go through the list and state pIC50 for each entry.
1. Nc1ccc(-c2cccs2)cc1NC(=O)c1ccc2c(c1)ncn2CCN1CCOCC1
2. Cc1ccc(CCCC(=O)Nc2ccc(C(=O)Nc3ccc(F)cc3N)nc2)cn1

["6.36 to 6.37", 9.00]

Dear colleague, could you send me pIC50 for each of the items below? Thanks.
1. Nc1ccc(-c2cccnc2)cc1NC(=O)c1ccc(N2CCNCC2)nc1
2. O=C(NO)c1cnc(NC2(c3cccc(F)c3)CCC3(CC2)OCCO3)nc1

["6.30 to 8.00", 5.74]

---

pIC50: −log10 of the molar value.
Below: compounds with pIC50 recorded for UniProt O15379 in separate published works.

[
  {
    "Smiles structure": "CN1CCN(c2ccc(C(=O)Nc3cc(-c4ccco4)ccc3N)cn2)CC1",
    "Target of assay": "UniProt O15379",
    "pIC50": "6.30 to 8.00"
  },
  {
    "Smiles structure": "FC(F)c1nnc(-c2ccc(Cn3cc(-c4ccc(NC5=NCCN5)cc4)nn3)cc2)o1",
    "Target of assay": "UniProt O15379",
    "pIC50": "< 4.52"
  },
  {
    "Smiles structure": "Cc1nc2ccc(C(=O)Nc3cc(-c4cccs4)ccc3N)cc2[nH]1",
    "Target of assay": "UniProt O15379",
    "pIC50": "5.88 to 5.89"
  },
  {
    "Smiles structure": "Nc1ccc(-c2ccccn2)cc1NC(=O)c1ccc(N2CCNCC2)cn1",
    "Target of assay": "UniProt O15379",
    "pIC50": "< 6.30"
  }
]

Quick one: pIC50 of O=C(NO)c1cnc(NC2(c3cc(F)cc(F)c3)CCCCC2)nc1 ? 5.21

---

Several publications report IC50 on Histone deacetylase 3 (Homo sapiens, UniProt O15379); those values are gathered here.
Please respond with rule met when measured IC50 is strictly beneath 700 nM, and with rule not met in all other cases.

[
  {
    "Molecule": "O=C(NO)c1cnc(NC2(c3ccccc3)CCN(C(=O)Nc3ccccc3F)CC2)nc1",
    "Label class": "rule not met"
  },
  {
    "Molecule": "O=C(NO)c1ccc(CN(C(=O)N2CCOCC2)c2cccc(Br)c2)cc1",
    "Label class": "rule not met"
  },
  {
    "Molecule": "O=C(NO)c1cnc(NC2(c3cc(F)ccc3F)CCOCC2)nc1",
    "Label class": "rule met"
  }
]

Attention now turns to another entry.
Say whether its IC50 is strictly beneath 700 nM. Entry: CC(C)C[C@@H](C(=O)N1CCC(Nc2ncc(C(=O)NO)cn2)(c2ccccc2)CC1)c1ccccc1 (stereo in doubt) rule met

---

Collected IC50 for Histone deacetylase 3 (Homo sapiens, UniProt O15379) across several studies; compounds listed below.

Some compounds with known IC50 results, for comparison:
[
  {
    "Smiles structure": "Nc1ccc(-c2cccs2)cc1NC(=O)c1cnc(N2CCNCC2)o1",
    "Endpoint name": "IC50",
    "Result": "> 500 nM"
  },
  {
    "Smiles structure": "Nc1ccc(-c2ccoc2)cc1NC(=O)c1cnc(N2CCNCC2)s1",
    "Endpoint name": "IC50",
    "Result": "10 to 500 nM"
  },
  {
    "Smiles structure": "CN1CCN(c2ccc(-c3ccc(S(=O)(=O)N4CCC=C(C(=O)NO)CC4)cc3)cc2)CC1",
    "Endpoint name": "IC50",
    "Result": "100 to 500 nM"
  }
]

Hi, could you look up IC50 for each item in my list?
1. O=C(Cn1ccc2ccc(C(=O)NO)cc21)Nc1ccccc1
2. O=C(NO)c1ccc2ccn(CCOc3cccc(CN4CCOCC4)c3)c2c1

1. > 10000 nM
2. > 10000 nM

---

pIC50: −log10 of the molar value.
Multi-source literature compilation: pIC50 on UniProt:O15379.

Report pIC50 for every entry below.
1. CN1CCN(c2ccc(C(=O)Nc3nc(-c4cccs4)ccc3N)cn2)CC1
2. FC(F)c1nnc(-c2ccc(Cn3cnc(-c4ccc(NC5=NCCN5)cc4)c3)cc2)o1
3. O=C(Nc1cc(-c2nnn(Cc3ccc(-c4nnc(C(F)F)o4)cn3)n2)ccc1O)N1CCOCC1
4. COCCOc1ccc(C(=O)Nc2cc(-c3cccs3)ccc2N)nc1

4.30 to 6.00
< 4.52
< 4.52
6.35 to 6.36

Fill in pIC50 for each of the 4 compounds listed.
1. COc1ccc(OC)c(CNc2ccc(C(=O)NO)cc2)c1
2. Nc1ccc(-c2cccs2)cc1NC(=O)c1ccc2c(c1)CC(=O)N2CC1CC1
3. Nc1ccc(-c2cccs2)cc1NC(=O)c1ccc2ncn(CCN3CCOCC3)c2c1
4. Nc1ccc(-c2ccc(F)cc2)cc1NC(=O)c1cnc(N2CCNCC2)s1

1. 5.96 to 6.05
2. 6.30 to 6.31
3. 5.91 to 5.92
4. 6.30 to 8.00

Could you tell me pIC50 for each of these compounds? They are listed below.
1. Nc1ccc(-c2ccco2)cc1NC(=O)c1cnc(N2CCNCC2)s1
2. O=C(Nc1cccc(-c2cn(Cc3ccc(-c4nnc(C(F)F)o4)c(F)c3)nn2)c1)N1CCOCC1
3. CN1CCN(c2ccc3cc(C(=O)Nc4cc(-c5cccs5)ccc4N)cnc3c2)CC1

1. 6.30 to 8.00
2. < 4.52
3. 6.52 to 6.55

# per-item lookup of pIC50; items listed below
1. Nc1ccc(-c2ccccc2)cc1NC(=O)c1ccc(N2CCNCC2)nn1
2. CN1C(=O)Cc2cc(C(=O)Nc3cc(-c4ccccc4)ccc3N)ccc21
3. Nc1ccc(-c2ccncc2)cc1NC(=O)c1ccc(N2CCNCC2)s1
4. CN(C)CCN(C)c1ccc2cc(C(=O)Nc3cc(-c4cccs4)ccc3N)cnc2c1
5. Nc1ccc(-c2cccnc2)cc1NC(=O)c1cnc(N2CCNCC2)s1

["6.74 to 6.77", "6.05 to 6.06", "6.30 to 8.00", "6.60 to 6.62", "6.30 to 8.00"]

Give one value of pIC50 per listed compound.
1. FC(F)c1nnc(-c2ccc(Cn3cc(-c4ccc5nc(Cl)[nH]c5c4)nn3)nc2)o1
2. Nc1ccc(-c2cccs2)cc1NC(=O)c1ccc(OCCO)cn1

["< 4.52", "6.92 to 6.96"]

Provide reported pIC50 for each item, in the same order as listed.
1. CN(C)Cc1ccc(OCCn2ccc3ccc(C(=O)NO)cc32)cc1
2. O=C(NO)c1ccc(NC2(c3cc(F)ccc3F)CCOCC2)cc1

1. < 5.00
2. 5.96 to 6.00
